Target: full-length HAQ STING (Homo sapiens (Human), UniProt Q86WV6, G230A/H232R/R293Q/R71H)
Sequence (Q86WV6 other isoform, or with tags, fused parts or gaps, stated change not applied): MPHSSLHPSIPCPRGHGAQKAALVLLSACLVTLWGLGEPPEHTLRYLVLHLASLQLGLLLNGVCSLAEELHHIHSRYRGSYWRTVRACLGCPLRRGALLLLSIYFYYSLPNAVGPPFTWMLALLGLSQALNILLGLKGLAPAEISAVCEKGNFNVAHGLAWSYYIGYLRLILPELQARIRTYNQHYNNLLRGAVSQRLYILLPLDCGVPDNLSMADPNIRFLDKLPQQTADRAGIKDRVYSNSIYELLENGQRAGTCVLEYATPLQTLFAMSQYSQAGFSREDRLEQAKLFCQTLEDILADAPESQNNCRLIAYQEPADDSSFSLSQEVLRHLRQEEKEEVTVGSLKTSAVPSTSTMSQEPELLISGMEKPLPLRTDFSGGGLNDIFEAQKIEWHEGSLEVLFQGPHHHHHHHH
Experiment: 3H-cGAMP filtration binding assay (HAQ STING)
Conditions: competition with tritiated cGAMP, HAQ STING membrane; read-out: EC50 (nM), 3H-cGAMP filtration binding assay for HAQ STING
Measurement Name: EC50 (nM)
Hi! Could you send only the number? It should be in nM, unit omitted.

- Nc1nc2c(ncn2[C@@H]2O[C@@H]3COP(=O)(S)O[C@H]4[C@@H](O)[C@H](n5ccc6c(N)ncnc65)O[C@@H]4COP(=O)(O)O[C@@H]2[C@@H]3O)c(=O)[nH]1 (some centres unmarked): 162

Entry under review: Nc1ncnc2c1ccn2[C@@H]1O[C@@H]2COP(=O)(O)O[C@@H]3C[C@@H](COP(=O)(O)O[C@H]2[C@H]1O)O[C@H]3n1cnc2c(=O)[nH]cnc21 . Reported EC50?
6.4

Entry under review: Nc1nc2c(ncn2[C@@H]2S[C@@H]3COP(=O)(O)OC4C(O)[C@H](n5cnc6c(N)ncnc65)O[C@@H]4COP(=O)(O)OC2C3O)c(=O)[nH]1 (stereo in doubt) . Reported EC50?
1.2

====

Target: full-length HAQ STING (Homo sapiens (Human), UniProt Q86WV6, G230A/H232R/R293Q/R71H)
Experiment: 3H-cGAMP filtration binding assay (HAQ STING)
Settings: competition with tritiated cGAMP, HAQ STING membrane; read-out: EC50 (nM), 3H-cGAMP filtration binding assay for HAQ STING
# key: entry, value: EC50
Hi! Could you send only the number? It should be in nM, unit omitted.

Completed entries (count: 3):
* Nc1ncnc2c1ncn2[C@@H]1O[C@@H]2COP(=O)(O)O[C@H]3[C@@H](F)[C@H](n4cnc5c(=O)[nH]cnc54)O[C@@H]3COP(=O)(O)O[C@@H]1[C@@H]2O | 2.6
* Nc1nc2c(ncn2[C@@H]2O[C@@H]3COP(=O)(O)O[C@H]4[C@@H](O)[C@H](n5cc(F)c6c(N)ncnc65)O[C@@H]4COP(=O)(O)O[C@@H]2[C@@H]3O)c(=O)[nH]1 | 11.9
* Nc1nc2c(ncn2[C@@H]2O[C@@H]3COP(=O)(O)O[C@H]4[C@@H](O)[C@H](n5cnc6c(O)ncnc65)O[C@@H]4COP(=O)(O)O[C@@H]2[C@@H]3F)c(=O)[nH]1 | 5.1

Next:
Entry under review: CCc1ncnc2c1ncn2[C@@H]1O[C@@H]2COP(=O)(O)O[C@@H]3[C@H](O)[C@@H](COP(=O)(O)O[C@H]2[C@H]1O)O[C@H]3n1cnc2c(=O)[nH]c(N)nc21 . Reported EC50?
89.4

====

# key: entry, value: EC50
Target: full-length HAQ STING (Homo sapiens (Human), UniProt Q86WV6, G230A/H232R/R293Q/R71H)
Test: 3H-cGAMP filtration binding assay (HAQ STING)
Conditions: competition with tritiated cGAMP, HAQ STING membrane; read-out: EC50 (nM), 3H-cGAMP filtration binding assay for HAQ STING
Hi! Could you send only the number? It should be in nM, unit omitted.

- Nc1nc2c(ncn2[C@@H]2O[C@@H]3COP(=O)(S)O[C@H]4[C@@H](O)[C@H](n5ccc6c(N)ncnc65)O[C@@H]4COP(=O)(S)O[C@@H]2C3)c(=O)[nH]1 (single isomer, unassigned) [Example 77]: 161

Given the entry Nc1nc2c(ncn2[C@@H]2O[C@@H]3COP(=O)(O)O[C@H]4[C@@H](O)[C@H](n5cnc6c(N)ncnc65)O[C@@H]4COP(=O)(O)O[C@@H]2[C@@H]3O)c(=S)[nH]1 , what EC50 was observed with full-length HAQ STING (Homo sapiens (Human), UniProt Q86WV6, G230A/H232R/R293Q/R71H)?
1.7

Given the entry Nc1nc2c(ncn2[C@@H]2S[C@@H]3COP(=O)(O)O[C@H]4[C@@H](O)[C@H](n5cnc6c(=O)[nH]cnc65)O[C@@H]4COP(=O)(O)O[C@@H]2[C@@H]3O)c(=O)[nH]1 , what EC50 was observed with full-length HAQ STING (Homo sapiens (Human), UniProt Q86WV6, G230A/H232R/R293Q/R71H)?
7.3

Given the entry NC[C@H]1[C@H]2OP(=O)(O)OC[C@H]3O[C@@H](n4cnc5c(N)ncnc54)[C@H](O)[C@@H]3OP(=O)(O)OC[C@H]1O[C@H]2n1cnc2c(=O)[nH]c(N)nc21 , what EC50 was observed with full-length HAQ STING (Homo sapiens (Human), UniProt Q86WV6, G230A/H232R/R293Q/R71H)?
21.5

====

# key: entry, value: EC50
Target: full-length HAQ STING (Homo sapiens (Human), UniProt Q86WV6, G230A/H232R/R293Q/R71H)
Assay: 3H-cGAMP filtration binding assay (HAQ STING)
Details: competition with tritiated cGAMP, HAQ STING membrane; read-out: EC50 (nM), 3H-cGAMP filtration binding assay for HAQ STING

• Nc1nc2c(ncn2[C@@H]2O[C@@H]3COP(=O)(S)O[C@H]4[C@@H](O)[C@H](n5ccc6c(N)ncnc65)O[C@@H]4COP(=O)(S)O[C@@H]2C3)c(=O)[nH]1 (single isomer, unassigned) [Example 79] = 103 nM

Entry under review: Nc1nc2c(ncn2[C@@H]2O[C@@H]3COP(=O)(O)O[C@H]4C[C@H](n5cnc6c(=O)[nH]cnc65)O[C@@H]4COP(=O)(O)O[C@@H]2[C@@H]3F)c(=O)[nH]1 . Reported EC50?
8.2 nM

Entry under review: O=c1[nH]cnc2c1ncn2[C@@H]1O[C@@H]2COP(=O)(O)O[C@@H]3C[C@@H](COP(=O)(O)O[C@H]2[C@H]1O)O[C@H]3n1cnc2c(=O)[nH]cnc21 . Reported EC50?
45.9 nM

====

# key: entry, value: EC50
Molecular target: full-length WT STING (Homo sapiens (Human), UniProt Q86WV6, H232R)
Sequence (Q86WV6 other isoform, or with tags, fused parts or gaps H232R (already in the parent)): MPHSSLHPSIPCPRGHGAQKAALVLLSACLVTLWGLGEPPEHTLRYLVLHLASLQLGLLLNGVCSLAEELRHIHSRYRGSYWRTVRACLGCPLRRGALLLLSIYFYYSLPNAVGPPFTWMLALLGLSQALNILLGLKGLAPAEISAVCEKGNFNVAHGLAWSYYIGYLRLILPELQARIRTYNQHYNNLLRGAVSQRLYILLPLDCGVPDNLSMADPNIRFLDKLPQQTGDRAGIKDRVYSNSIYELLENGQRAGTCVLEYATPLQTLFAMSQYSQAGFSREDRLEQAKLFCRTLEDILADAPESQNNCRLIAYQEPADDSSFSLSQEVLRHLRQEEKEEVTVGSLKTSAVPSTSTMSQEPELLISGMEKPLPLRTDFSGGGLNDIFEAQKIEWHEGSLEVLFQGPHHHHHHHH
Test: 3H-cGAMP filtration binding assay (WT STING)
Settings: competition with tritiated cGAMP, WT STING membrane; read-out: EC50 (nM), 3H-cGAMP filtration binding assay for WT STING
Hi! Could you send only the number? It should be in nM, unit omitted.

Completed entries (count: 3):
• Nc1nc2c(ncn2[C@@H]2O[C@@H]3COP(=O)(S)O[C@H]4C[C@H](c5cnc6c(=O)[nH]cnn56)O[C@@H]4COP(=O)(S)O[C@@H]2[C@@H]3F)c(=O)[nH]1 (some centres unmarked) = 422
• Nc1nc2c(ncn2[C@@H]2O[C@@H]3COP(=O)(S)O[C@H]4C[C@H](n5cc(F)c6c(N)ncnc65)O[C@@H]4COP(=O)(O)O[C@@H]2[C@@H]3F)c(=O)[nH]1 (some centres unmarked) [Example 256] = 93.5
• Nc1nc2c(ncn2[C@@H]2O[C@@H]3COP(O)(=S)O[C@H]4[C@@H](O)[C@H](n5cnc6c(N)ncnc65)O[C@@H]4COP(=O)(O)O[C@@H]2[C@@H]3O)c(=O)[nH]1 (some centres unmarked) = 24.9

Entry under review: Nc1nc2c(ncn2[C@@H]2O[C@@H]3COP(=O)(S)O[C@H]4[C@@H](O)[C@H](n5ccc6c(N)ncnc65)O[C@@H]4COP(=O)(O)O[C@@H]2[C@@H]3O)c(=O)[nH]1 (some centres unmarked) . Reported EC50?
1020

Entry under review: Nc1nc2c(ncn2[C@@H]2O[C@@H]3COP(=O)(S)O[C@H]4C[C@H](n5cc(F)c6c(N)ncnc65)O[C@@H]4COP(=O)(O)O[C@@H]2[C@@H]3F)c(=O)[nH]1 (some centres unmarked) [Example 255] . Reported EC50?
302

====

Target: full-length HAQ STING (Homo sapiens (Human), UniProt Q86WV6, G230A/H232R/R293Q/R71H)
Test: 3H-cGAMP filtration binding assay (HAQ STING)
Conditions: competition with tritiated cGAMP, HAQ STING membrane; read-out: EC50 (nM), 3H-cGAMP filtration binding assay for HAQ STING
# key: entry, value: EC50
Hi! Could you send only the number? It should be in nM, unit omitted.

• Nc1nc2c(ncn2[C@@H]2O[C@@H]3COP(=O)(S)O[C@H]4[C@@H](O)[C@H](n5ccc6c(N)ncnc65)O[C@@H]4COP(=O)(S)O[C@@H]2C3)c(=O)[nH]1 (single isomer, unassigned) [Example 80] = 1.3
• Nc1nc2c(ncn2[C@@H]2O[C@@H]3COP(O)(=S)O[C@H]4[C@@H](O)[C@H](n5cnc6c(N)ncnc65)O[C@@H]4COP(=O)(O)O[C@@H]2[C@@H]3O)c(=O)[nH]1 (stereo partly shown) = 3
• CNc1ncnc2c1ncn2[C@@H]1O[C@@H]2COP(=O)(O)O[C@@H]3[C@H](O)[C@@H](COP(=O)(O)O[C@H]2[C@H]1O)O[C@H]3n1cnc2c(=O)[nH]c(N)nc21 = 94

Next:
Entry under review: Nc1ncc2ncn([C@@H]3O[C@@H]4COP(=O)(O)O[C@@H]5[C@H](O)[C@@H](COP(=O)(O)O[C@H]4[C@H]3O)O[C@H]5n3cnc4c(=O)[nH]c(N)nc43)c2n1 . Reported EC50?
11.8
